B1: TPR t1 (parent)
chain: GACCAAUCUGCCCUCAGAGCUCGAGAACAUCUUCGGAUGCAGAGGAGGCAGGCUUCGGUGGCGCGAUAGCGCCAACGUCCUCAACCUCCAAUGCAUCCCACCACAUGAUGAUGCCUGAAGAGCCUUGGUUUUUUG

Variants of: B1
Test: polymerase ribozyme fitness, log enrichment relative to wild type (log ratio); higher = more active; in vitro selection for triplet polymerase activity
property-name: polymerase ribozyme fitness (log ratio)
Form field (numeric): enter value without unit.

>>> df
        alteration                            property_name  reported_value
0  A18U U54G C114U  polymerase ribozyme fitness (log ratio)           -4.87

Returns the measured polymerase ribozyme fitness (log ratio) for the input variant. Input: U96C C102U G113C -4.89

// query: G10C C76G -1.17

// query: A6C C40U G60A C73G G107U C124U -5.46

// query: U7C C8U C20A G71A G93U -5.59

// query: C40A G127C -2.27

// query: A46U G61A A66U G113U C123G U129A -5.08

// query: U21A G63A -1.05

// query: U21A G61A U96C -0.247

// query: A50C G61U -0.0844

// query: A41U U130A -2.03

// query: G44C C49U C88A C124U -1.53

// query: C12U G44U -0.985

// query: A5G G63A U67G U96A C123U -5.12

// query: G51U A66U A111C -6.21

FYI, the data here is from the RNAGym collection of RNA variant scans (doi:10.1073/pnas.2313332121).
